Catalogue of molecules with associated solubility at 24 h
test: Solubility of the compound in phosphate buffer at pH 7.2 at 10 mg/ml after 24 hrs by HPLC-UV method; assay type: physicochemical
Your answer should be a plain number; it is taken to be in µg/mL.

- CC1=C(C(=O)N[C@@H](C)C(=O)N[C@@H](Cc2c[nH]c3ccccc23)C(=O)N[C@@H](Cc2ccccc2)C(=O)[C@@]2(C)CO2)Cc2ccccc21: 1.85
- Cc1ccc(CC[C@H](NC(=O)[C@H](Cc2ccccc2)NC(=O)[C@H](CC(C)C)NC(=O)CN2CCCCCC2)C(=O)[C@@]2(C)CO2)cc1: 7
- COc1ccc(C[C@H](NC(=O)[C@@H](C)NC(=O)[C@H]2CC[C@H](O)CC2)C(=O)N[C@@H](CC2=CCCC2)C(=O)[C@@]2(C)CO2)cc1: 491

Quick one: solubility at 24 h for CC1=C(C(=O)N[C@H](C)C(=O)N[C@@H](Cc2c[nH]c3ccccc23)C(=O)N[C@@H](Cc2ccccc2)C(=O)[C@@]2(C)CO2)Cc2ccccc21 ?
0.75

Quick one: solubility at 24 h for COc1ccc(C[C@H](NC(=O)[C@@H](C)NC(=O)C2=C(C)c3ccccc3C2)C(=O)N[C@@H](Cc2ccccc2)C(=O)[C@@]2(C)CO2)cc1 ?
1.4

Quick one: solubility at 24 h for COc1ccc(C[C@H](NC(=O)[C@@H](C)NC(=O)C2CCCCC2)C(=O)N[C@@H](Cc2ccccc2)C(=O)[C@@]2(C)CO2)cc1 ?
12.1
